Recorded values, source PubChem BioAssay (NCI).

# Test system: CCRF-CEM leukemia
# Test summary: NCI tumour cell line growth inhibition, 48 h
# TGI per record follows

Worked cases, TGI given:
[
  {
    "Compound": "COC(=O)c1ccc(Nc2nc3nc[nH]c3c(=O)[nH]2)cc1",
    "Result": "> 100 µM"
  },
  {
    "Compound": "Cn1nc(-c2ccccc2)c2c(/C=C/c3ccccc3)onc2c1=O",
    "Result": "> 100 µM"
  }
]

--- query ---
Inquiry: Note down TGI recorded for CN(C)c1cccc(NC2=NCCO2)c1
Reply text: > 100 µM

* * *

# System: OVCAR-3 ovarian
# Test summary: NCI tumour cell line growth inhibition, 48 h; in the data active means GI50 below about 0.43 µM; inactive means the rest
Please answer using one outcome listed in 1.0 = active, 0.0 = inactive

[
  {
    "Smiles repr": "C#CCOc1ccc2ncnc(Nc3ccc(NC(=O)C=C)cc3)c2c1",
    "Assay target": "OVCAR-3 ovarian",
    "Assigned label": 0.0
  },
  {
    "Smiles repr": "CCCCCCCCCCCC[n+]1ccc2ccccc2c1",
    "Assay target": "OVCAR-3 ovarian",
    "Assigned label": 0.0
  },
  {
    "Smiles repr": "CN1CSC(=S)N(Cc2ccccc2)C1",
    "Assay target": "OVCAR-3 ovarian",
    "Assigned label": 0.0
  },
  {
    "Smiles repr": "CO[C@H]1C[C@@H]2CC[C@@H](C)[C@@](O)(O2)C(=O)C(=O)N2CCCC[C@H]2C(=O)O[C@H]([C@H](C)C[C@@H]2CC[C@@H](OCCO)[C@H](OC)C2)CC(=O)[C@H](C)C=C(C)[C@@H](O)[C@@H](OC)C(=O)[C@H](C)C[C@H](C)/C=C/C=C/C=C1C",
    "Assay target": "OVCAR-3 ovarian",
    "Assigned label": 1.0
  },
  {
    "Smiles repr": "O=C(Nc1nc2ccccc2s1)Nc1ccc([N+](=O)[O-])cc1Cl",
    "Assay target": "OVCAR-3 ovarian",
    "Assigned label": 0.0
  }
]

Inquiry: Look up the recorded call for CN(CC(=O)N(Cc1ccc(C2CCCCC2)cc1)c1ccc(C(=O)O)cc1)S(=O)(=O)c1c(F)c(F)c(F)c(F)c1F in this test.
Reply text: 0.0

* * *

# System: DU-145 prostate
# Test summary: NCI tumour cell line growth inhibition, 48 h
Recorded metric: GI50

Worked cases, GI50 given:
[
  {
    "Smiles repr": "O=C1NC(=NCCCc2ccccc2)S/C1=C\\c1ccc2ncccc2c1",
    "Result": "5890 nM"
  },
  {
    "Smiles repr": "CN(CC(=O)N(Cc1ccc(C2CCCCC2)cc1)c1ccc(C(=O)O)cc1)S(=O)(=O)c1c(F)c(F)c(F)c(F)c1F",
    "Result": "1740 nM"
  },
  {
    "Smiles repr": "CN(CCCNC(=O)CCOCCOCCOCCNC(=O)Cc1ccc2ccc3cccc4ccc1c2c34)CCCNc1cc(-c2ccc3ccccc3c2)nc2ccccc12",
    "Result": "561 nM"
  }
]

Inquiry: Note down GI50 recorded for O=C(CC(Cl)=C(Cl)Cl)c1cccc(Cl)c1Cl
Reply text: > 100000 nM

Inquiry: Note down GI50 recorded for CC(=O)[O][Hg][c]1c(C)c(C)cc(C)c1C
Reply text: 1860 nM

Inquiry: Note down GI50 recorded for CCN1CCN(C(=O)[C@]23CCC(C)(C)C[C@@H]2C2=CC[C@@H]4[C@@]5(C)C/C(=C/c6ccncc6)C(=O)C(C)(C)[C@@H]5CC[C@@]4(C)[C@]2(C)CC3)CC1
Reply text: 1670 nM

Inquiry: Note down GI50 recorded for C=CC(=O)N1CC2(CC(n3nc(-c4ccc5c(cnn5C)c4)c(-c4c(Cl)c(C)cc5[nH]ncc45)c3C)C2)C1
Reply text: 3110 nM

Inquiry: Note down GI50 recorded for CC(=O)c1c(C)[nH]c(-c2nc3ccc(N4CCN(C)CC4)cc3[nH]2)c1-c1ccccc1
Reply text: 10200 nM
